Reference source for all entries: the METLIN SMRT retention time set (Domingo-Almenara et al. 2019)

assay: gradient 5% acetonitrile 3 min, to 50% in 2 min, to 85% in 15 min, held 3 min, 100 µL/min; settings: column: Zorbax Extend-C18 2.1 x 50 mm; eluents: water / acetonitrile, 0.1% formic acid
value type: RP-LC retention time (s)

COCCCNC(=O)C1(C)Cn2nc(-c3ccccc3)cc2C(=O)N1c1ccc(F)cc1 (stereo not given) :: 806
Cc1cc(C)c(NC(=O)Cn2nc3c(N(C)C4CCCCC4)nccn3c2=O)c(C)c1 :: 797
O=C(NCc1cscn1)C1CCN(S(=O)(=O)c2cccc(C(F)(F)F)c2)CC1 :: 787
Cc1ccc(Nc2ccc(NC(=O)C3CCCC3)cc2)nn1 :: 566
COc1cc(OC)cc(C(=O)N2CCN=C2N2CCC(C)CC2)c1 :: 694
